# PBM binding z-score annotations
Tested on: PPARa:RXRa (NR concentration 270 nM, RXRa partner concentration 90 nM)
Assay: PBM binding z-score (relative to random genomic background probes); higher = stronger binding; sequences stand for … in GC…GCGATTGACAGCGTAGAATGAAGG

| querySequence | PBM binding z-score |
| --- | --- |
| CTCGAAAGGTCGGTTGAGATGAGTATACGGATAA | 2.34 |
| TCTGCTAAGTCAACGATGGTCAGCTAATCTGCTA | -0.269 |
| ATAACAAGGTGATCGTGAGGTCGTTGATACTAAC | 1.89 |
| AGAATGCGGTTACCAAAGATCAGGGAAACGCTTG | 0.0564 |
| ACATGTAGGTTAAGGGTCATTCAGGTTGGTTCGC | 6.02 |
| CCAGACAGGTGAGAAGGTACCTCAGCCTCGATTA | 0.192 |
| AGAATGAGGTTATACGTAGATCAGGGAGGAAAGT | 3.09 |
| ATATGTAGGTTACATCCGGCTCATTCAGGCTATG | 3.04 |
| GATACAGGGTCAAGGCCAGAGTGCGCGTATTGAT | 5.4 |
| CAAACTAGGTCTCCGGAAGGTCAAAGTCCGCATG | 3.75 |
| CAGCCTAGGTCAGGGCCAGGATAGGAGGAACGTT | 2.04 |
